TARGET_OR_TEST_SYSTEM: UniProt:P11597
PROCEDURE_DETAILS: Assay of CETP Inhibition using Purified Components (Reconstituted Buffer Assay)
Assay type: biochemical
Parameters: made in house; host or cells: CHO cells (serum-free conditioned medium)
SETUP_CONDITIONS: Inhibition of CETP activity in reconstituted buffer assay; transfer of [3H]CE from HDL to LDL; read-out: IC50
Recorded IC50, one value per entry.

Exam item: For CS(=O)(=O)c1ccc(-c2cccc(N(Cc3cccc(OC(F)(F)C(F)F)c3)CC(O)C(F)(F)F)c2)cc1 (stereo not drawn) , what is its reported IC50?
Marked response: > 50 µM

Exam item: Then this compound: Cc1ccc(N(Cc2ccc(C(F)(F)F)cc2)CC(O)C(F)(F)F)cc1 (stereo not drawn)
Marked response: > 100 µM

Exam item: Then Cc1cc(-c2cccc(N(Cc3cccc(OC(F)(F)C(F)F)c3)CC(O)C(F)(F)F)c2)cc(C)c1N(C)C (stereo not drawn) ?
Marked response: > 50 µM

* * *

TARGET_OR_TEST_SYSTEM: CETP (Homo sapiens, UniProt P11597)
PROCEDURE_DETAILS: Assay of CETP Inhibition using Purified Components (Reconstituted Buffer Assay)
Type: biochemical
Parameters: made in house; host or cells: CHO cells (serum-free conditioned medium)
SETUP_CONDITIONS: Inhibition of CETP activity in reconstituted buffer assay; transfer of [3H]CE from HDL to LDL; read-out: IC50
MEASUREMENT_NAME: IC50

Consider the reported IC50 for these compounds:
Exam item: Reported IC50 for OC(COc1cccc(CN(CC(O)C(F)(F)F)c2cccc(Oc3ccccc3)c2)c1)C(F)(F)F (stereo not shown) : what is it?
Marked response: 3.6 µM

Exam item: Here is the next compound: OC(CN(Cc1ccccc1)c1ccc(Cl)cc1)C(F)(F)F (stereo not shown)
Marked response: > 100 µM

Exam item: How about this compound: OC(CN(Cc1cccc(OC(F)(F)C(F)F)c1)c1cccc(Oc2cc3ccccc3cn2)c1)C(F)(F)F (stereo not shown)
Marked response: > 50 µM

Others:
Exam item: Any idea what its IC50 is? The compound is OC(CN(Cc1ccc(Cl)cc1)Cc1ccccc1C(F)(F)F)C(F)(F)F (stereo not shown)
Marked response: > 100 µM

* * *

TARGET_OR_TEST_SYSTEM: CETP (Homo sapiens, UniProt P11597)
Sequence (P11597 18-493): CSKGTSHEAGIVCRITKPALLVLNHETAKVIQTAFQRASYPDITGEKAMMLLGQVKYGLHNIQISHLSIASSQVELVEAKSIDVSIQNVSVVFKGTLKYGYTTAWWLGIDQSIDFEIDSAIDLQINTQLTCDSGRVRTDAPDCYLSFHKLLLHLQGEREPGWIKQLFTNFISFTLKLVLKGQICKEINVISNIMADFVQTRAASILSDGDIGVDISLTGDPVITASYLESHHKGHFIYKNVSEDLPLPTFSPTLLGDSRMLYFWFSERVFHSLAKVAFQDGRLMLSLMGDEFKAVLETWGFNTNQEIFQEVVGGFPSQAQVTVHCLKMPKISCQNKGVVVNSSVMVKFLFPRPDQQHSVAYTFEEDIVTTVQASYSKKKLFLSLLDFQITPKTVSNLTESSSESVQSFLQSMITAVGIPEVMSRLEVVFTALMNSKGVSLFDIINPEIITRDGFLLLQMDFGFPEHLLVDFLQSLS
PROCEDURE_DETAILS: Assay of CETP Inhibition using Purified Components (Reconstituted Buffer Assay)
Type: biochemical
Design: made in house; host or cells: CHO cells (serum-free conditioned medium)
SETUP_CONDITIONS: Inhibition of CETP activity in reconstituted buffer assay; transfer of [3H]CE from HDL to LDL; read-out: IC50
The entries below are paired with their reported IC50.

See these solved cases before continuing.
Exam item: Sample OC(CN(Cc1cccc(Oc2cccc(C(F)(F)F)c2)c1)c1cccc(Oc2ccccc2)c1)C(F)(F)F (centres unmarked) [Example 115] — what was its IC50?
Marked response: 3 µM

Exam item: Proceed to N#Cc1cccc(COc2cccc(N(Cc3cccc(OC(F)(F)C(F)F)c3)CC(O)C(F)(F)F)c2)c1 (centres unmarked) [Example 383]
Marked response: 2.3 µM

Exam item: Would you kindly repeat that for O=C(Nc1ccc(-c2ccccc2)cc1)N(CC(O)C(F)(F)F)c1cccc(OC(F)(F)F)c1 (centres unmarked) [Example 369] ?
Marked response: > 100 µM

Exam item: Another compound to look at: Cc1ccc(S(=O)(=O)NC(=O)N(CC(O)C(F)(F)F)c2cccc(OC(F)(F)F)c2)cc1 (centres unmarked) [Example 370]
Marked response: > 100 µM

Others:
Exam item: For Cc1ccc(CN(CC(O)C(F)(F)F)c2ccccc2C)cc1 (centres unmarked) [Example 13] , what is its reported IC50?
Marked response: > 100 µM

* * *

Each item that follows carries a reported IC50.
TARGET_OR_TEST_SYSTEM: CETP (Homo sapiens, UniProt P11597)
PROCEDURE_DETAILS: Assay of CETP Inhibition using Purified Components (Reconstituted Buffer Assay)
Type: biochemical
Design: made in house; host or cells: CHO cells (serum-free conditioned medium)
SETUP_CONDITIONS: Inhibition of CETP activity in reconstituted buffer assay; transfer of [3H]CE from HDL to LDL; read-out: IC50
Reply with just the number (in µM).

Solved entries (count: 3):
Exam item: So what's the measured IC50 for this one? CC(Oc1cccc(N(Cc2cccc(OC(F)(F)C(F)F)c2)CC(O)C(F)(F)F)c1)C(=O)Nc1ccccc1 (stereo not shown)
Marked response: 5.7

Exam item: Also, OC(CN(Cc1cccc(C(F)(F)F)c1)c1ccc(Br)c(C(F)(F)F)c1)C(F)(F)F (stereo not shown) please.
Marked response: 8.3

Exam item: Proceed to OC(CN(Cc1cccc2ccccc12)c1cccc(OC(F)(F)F)c1)C(F)(F)F (stereo not shown)
Marked response: 80

Next:
Exam item: Report IC50 for CC(C)C(O)c1cccc(N(Cc2cccc(OC(F)(F)C(F)F)c2)CC(O)C(F)(F)F)c1 (stereo not shown) please.
Marked response: 1.7

Exam item: Entry to check: CCOc1cccc(CN(CC(O)COC(F)(F)C(F)F)c2cccc(Oc3ccccc3)c2)c1 (stereo not shown)
Marked response: 11

Exam item: What would you report for CCCCOc1ccc(Oc2cccc(N(Cc3cccc(OC(F)(F)C(F)F)c3)CC(O)C(F)(F)F)c2)cc1 (stereo not shown) ?
Marked response: 0.49

Exam item: Moving on to OC(CN(Cc1cccc(OC(F)(F)C(F)F)c1)c1cccc(OCc2ccc(C(F)(F)F)cc2C(F)(F)F)c1)C(F)(F)F (stereo not shown)
Marked response: 0.86

Exam item: One more compound: COc1ccc(Nc2cccc(N(Cc3cccc(OC(F)(F)C(F)F)c3)CC(O)C(F)(F)F)c2)cc1OC (stereo not shown)
Marked response: 2.6

* * *

TARGET_OR_TEST_SYSTEM: CETP (Homo sapiens)
PROCEDURE_DETAILS: Assay of CETP Inhibition using Purified Components (Reconstituted Buffer Assay)
Format: biochemical
Parameters: made in house; host or cells: CHO cells (serum-free conditioned medium)
SETUP_CONDITIONS: Inhibition of CETP activity in reconstituted buffer assay; transfer of [3H]CE from HDL to LDL; read-out: IC50
Entries whose IC50 is below 8 µM take label 1; entries at or above 8 µM take label 0.

Reference set (3 entries):
Exam item: Input O=C(NCC(F)(F)F)c1cccc(N(Cc2cccc(OC(F)(F)C(F)F)c2)CC(O)C(F)(F)F)c1 (centres unmarked) [Example 463] ; condition: IC50 strictly below 8 µM. Does it hold?
Marked response: label 0

Exam item: And the next one, OC(CN(Cc1cccc(OC(F)(F)C(F)F)c1)c1cccc(Oc2ccc(C(F)(F)F)cn2)c1)C(F)(F)F (centres unmarked) [Example 445] ?
Marked response: label 1

Exam item: Can you check OC(CN(Cc1cccc(OC(F)(F)C(F)F)c1)c1cccc(Oc2ccc(Cl)c(F)c2)c1)C(F)(F)F (centres unmarked) [Example 246] next?
Marked response: label 1

Next:
Exam item: Below 8 µM on IC50? Entry OC(CN(Cc1cccc(C(F)(F)F)c1)c1cccc(Oc2ccccc2)c1)C(F)(F)F (centres unmarked) [Example 149]
Marked response: label 1

Exam item: Please do the same for O=[N+]([O-])c1cccc(N(Cc2cccc(OC(F)(F)C(F)F)c2)CC(O)C(F)(F)F)c1 (centres unmarked) [528B] as well.
Marked response: label 0

Exam item: Same question for O=C(NCc1cccc(OC(F)(F)F)c1)c1cccc(N(Cc2cccc(OC(F)(F)C(F)F)c2)CC(O)C(F)(F)F)c1 (centres unmarked) [Example 466] please.
Marked response: label 0

Exam item: Likewise for Oc1cccc(N(Cc2cccc(OC(F)(F)F)c2)CC(O)C(F)(F)F)c1 (centres unmarked) [Example 692] ?
Marked response: label 0

Exam item: And for CCCCNC(=O)c1cccc(N(Cc2cccc(OC(F)(F)C(F)F)c2)CC(O)C(F)(F)F)c1 (centres unmarked) [Example 458] ?
Marked response: label 0

Exam item: Note, next up: O=C(O)c1cccc(COc2cccc(N(Cc3cccc(OC(F)(F)C(F)F)c3)CC(O)C(F)(F)F)c2)c1 (centres unmarked) [Example 435]
Marked response: label 0

Exam item: For OC(CN(Cc1cccc(OC(F)(F)C(F)F)c1)c1cccc(Oc2ccc(Cl)cc2F)c1)C(F)(F)F (centres unmarked) [Example 265] then?
Marked response: label 1
